Reported CC50 at 5 days is given for each of the following molecules.
# Protocol Description: Half cytotoxic concentration on normal mammary gland epithelial cells MCF-10A-5E (PrestoBlue)
# Type: cell-based
# Recorded Conditions: human, MCF-10A-5E normal mammary gland epithelial cells, 5 days culture, 10% horse serum, read-out: Non-toxicity (evaluated by CC50)

[Q] So what does the record say about CC50 at 5 days for N#Cc1cccc(-c2nccc(-c3cccc(NC(=O)Nc4cc(Cl)nc(Cl)c4)c3)n2)c1 [Compound 3] ?
[A] 10 to 20 µM

---
[Q] So what does the record say about CC50 at 5 days for O=C(Nc1cccc(-c2ccnc(-c3ccc(F)c(F)c3)n2)c1)Nc1cc(Cl)nc(Cl)c1 [Compound 4] ?
[A] 5 to 10 µM

[Q] Then O=C(Nc1cccc(-c2cc(-c3cccc(C(F)(F)F)c3)ncn2)c1)Nc1cc(Cl)nc(Cl)c1 [Compound 14] ?
[A] 10 to 20 µM

---

# Target Of Assay: GNAQ (T96S) (Homo sapiens, UniProt P50148, T96S)
# Construct: BPS Bioscience (parental reporter cell line) 60406
# Sequence (P50148 1-359 T96S): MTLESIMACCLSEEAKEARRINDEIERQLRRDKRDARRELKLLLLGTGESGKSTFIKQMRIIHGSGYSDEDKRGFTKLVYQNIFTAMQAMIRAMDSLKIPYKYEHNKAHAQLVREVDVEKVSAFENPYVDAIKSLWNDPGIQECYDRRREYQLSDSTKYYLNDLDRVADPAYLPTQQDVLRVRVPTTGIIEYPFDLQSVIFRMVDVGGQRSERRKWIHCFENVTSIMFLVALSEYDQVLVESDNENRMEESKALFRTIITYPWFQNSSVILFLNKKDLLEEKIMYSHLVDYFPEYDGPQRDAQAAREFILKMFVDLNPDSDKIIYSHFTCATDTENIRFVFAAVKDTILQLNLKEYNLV
# Protocol Description: SRE luciferase reporter gene-HEK293 cell line, GNAQ (T96S)
# Type: cell-based
# Recorded Conditions: Cell type T96S; analytical concentration 2,700 nM; 20% FBS induction; read-out: GNAQ inhibitory rate
Reported inhibition at 2.7 µM is given for each of the following compounds.

Solved entries:
[Q] So what does the record say about inhibition at 2.7 µM for "FC(F)(F)c1cccc(-c2cccc(-c3ccc(NC(=S)Nc4cc(Cl)nc(Cl)c4)cc3)n2)c1" ?
[A] 40 to 70%

[Q] Then "O=C(Nc1cccc(-c2ccnc(-c3cccc(C(F)(F)F)c3)n2)c1)Nc1cc(Cl)nc(Cl)c1" ?
[A] 10 to 39%

[Q] Then "N#Cc1cccc(-c2cccc(-c3ccc(NC(=S)Nc4cc(Cl)nc(Cl)c4)cc3)n2)c1" ?
[A] 40 to 70%

[Q] Then "O=C(Nc1ccc(-c2ccnc(-c3ccncc3)n2)cc1)Nc1ccc(Cl)c(C(F)(F)F)c1" ?
[A] 10 to 39%

[Q] Then "O=C(Nc1cccc(-c2ccnc(-c3cccc(C(F)(F)F)c3)n2)c1)c1cc(Cl)nc(Cl)c1" ?
[A] < 10%

---
[Q] So what does the record say about inhibition at 2.7 µM for "O=C(Nc1ccc(-c2nc(-c3ccccc3)ncc2Cl)cc1)Nc1cc(Cl)nc(Cl)c1" ?
[A] 10 to 39%

[Q] Then "O=C(Nc1ccc(-c2cccc(-c3cccc(C(F)(F)F)c3)n2)cc1)Nc1cc(Cl)nc(Cl)c1" ?
[A] 10 to 39%

[Q] Then "O=C(Nc1cccc(-c2cc(-c3cccc(C(F)(F)F)c3)ncn2)c1)Nc1cc(Cl)nc(Cl)c1" ?
[A] 10 to 39%

[Q] Then "O=C(Nc1cccc(-c2ccnc(-c3ccc(F)c(F)c3)n2)c1)Nc1cc(Cl)nc(Cl)c1" ?
[A] 10 to 39%

[Q] Then "N#Cc1cccc(-c2nccc(-c3cccc(NC(=O)Nc4cc(Cl)nc(Cl)c4)c3)n2)c1" ?
[A] 40 to 70%

[Q] Then "O=C(Nc1ccc(-c2ccnc(-c3cccc(C(F)(F)F)c3)n2)cc1)Nc1cc(Cl)nc(Cl)c1" ?
[A] 10 to 39%

---

# Protocol Description: Half cytotoxic concentration on normal mammary gland epithelial cells MCF-10A-5E (PrestoBlue)
# Format: cell-based
# Recorded Conditions: human, MCF-10A-5E normal mammary gland epithelial cells, 5 days culture, 10% horse serum, read-out: Non-toxicity (evaluated by CC50)
# Description: Human normal mammary epithelial cells, MCF-10A-5E cells, were cultured in DMEM/F12K (1:1) medium, wherein Insulin-Transferrin-Selenium (ITS-G) (41400045; Thermo Fisher Scientific) diluted 1,000-fold for use, EGF stock (1 mg/mL) (10605-HNAE; Sino Biological) diluted 2,000-fold for use and Hydrocortisone stock (1 mg/mL) (S1696; Selleck Chemicals) diluted 2,000-fold for use were additionally added to the medium. […]
Assay Readout: CC50 at 5 days

[Q] So what does the record say about CC50 at 5 days for "O=C(Nc1ccc(-c2ccnc(-c3cccc(C(F)(F)F)c3)n2)cc1)Nc1cc(Cl)nc(Cl)c1" ?
[A] 10 to 20 µM

[Q] Then "O=C(Nc1ccc(-c2ccnc(-c3ccncc3)n2)cc1)Nc1ccc(Cl)c(C(F)(F)F)c1" ?
[A] 10 to 20 µM

[Q] Then "O=C(Nc1cccc(-c2ccnc(-c3cccc(C(F)(F)F)c3)n2)c1)c1cc(Cl)nc(Cl)c1" ?
[A] > 20 µM

[Q] Then "O=C(Nc1ccc(-c2cccc(-c3ccncc3)n2)cc1)Nc1ccc(Cl)c(C(F)(F)F)c1" ?
[A] 10 to 20 µM

[Q] Then "N#Cc1cccc(-c2cccc(-c3ccc(NC(=S)Nc4cc(Cl)nc(Cl)c4)cc3)n2)c1" ?
[A] > 20 µM

[Q] Then "O=C(Nc1ccc(-c2ccnc(-c3cccc(C(F)(F)F)c3)n2)cc1)Nc1ccc(Cl)c(C(F)(F)F)c1" ?
[A] 10 to 20 µM

Alright, here's another compound for you.
[Q] So what does the record say about CC50 at 5 days for "O=C(Nc1cccc(-c2ccnc(-c3cccc(C(F)(F)F)c3)n2)c1)Nc1cc(Cl)nc(Cl)c1" ?
[A] 10 to 20 µM

---

Reported inhibition at 8.1 µM is given for each of the following molecules.
# Target Of Assay: GNAQ (WT) (Homo sapiens, UniProt P50148)
# Construct: BPS Bioscience (parental reporter cell line) 60406
# Protocol Description: SRE luciferase reporter gene-HEK293 cell line, GNAQ (WT)
# Assay type: cell-based
# Recorded Conditions: Cell type WT; analytical concentration 8,100 nM; 20% FBS induction; read-out: GNAQ inhibitory rate

[Q] So what does the record say about inhibition at 8.1 µM for "O=C(Nc1ccc(-c2ccnc(-c3ccncc3)n2)cc1)Nc1ccc(Cl)c(C(F)(F)F)c1" ?
[A] 10 to 39%

[Q] Then "O=C(Nc1cccc(-c2ccnc(-c3cccc(C(F)(F)F)c3)n2)c1)Nc1cc(Cl)nc(Cl)c1" ?
[A] > 70%

[Q] Then "O=C(Nc1ccc(-c2cccc(-c3cccc(C(F)(F)F)c3)n2)cc1)Nc1cc(Cl)nc(Cl)c1" ?
[A] > 70%

[Q] Then "O=C(Nc1ccc(-c2ccnc(-c3cccc(C(F)(F)F)c3)n2)cc1)Nc1ccc(Cl)c(C(F)(F)F)c1" ?
[A] < 10%

[Q] Then "O=C(Nc1ccc(-c2ccnc(-c3cccc(C(F)(F)F)c3)n2)cc1)Nc1cc(Cl)nc(Cl)c1" ?
[A] 10 to 39%

[Q] Then "O=C(Nc1ccc(-c2cccc(-c3ccncc3)n2)cc1)Nc1ccc(Cl)c(C(F)(F)F)c1" ?
[A] 40 to 70%

[Q] Then "O=C(Nc1cccc(-c2ccnc(-c3cccc(C(F)(F)F)c3)n2)c1)c1cc(Cl)nc(Cl)c1" ?
[A] < 10%

[Q] Then "O=C(Nc1ccc(-c2nc(-c3ccccc3)ncc2Cl)cc1)Nc1cc(Cl)nc(Cl)c1" ?
[A] > 70%

[Q] Then "O=C(Nc1cccc(-c2ccnc(-c3ccc(F)c(F)c3)n2)c1)Nc1cc(Cl)nc(Cl)c1" ?
[A] 40 to 70%

[Q] Then "N#Cc1cccc(-c2cccc(-c3ccc(NC(=S)Nc4cc(Cl)nc(Cl)c4)cc3)n2)c1" ?
[A] > 70%

---
[Q] So what does the record say about inhibition at 8.1 µM for "O=C(Nc1cccc(-c2ccnc(-c3ccnc(Cl)c3)n2)c1)Nc1cc(Cl)nc(Cl)c1" ?
[A] > 70%

[Q] Then "N#Cc1cccc(-c2nccc(-c3cccc(NC(=O)Nc4cc(Cl)nc(Cl)c4)c3)n2)c1" ?
[A] > 70%

[Q] Then "O=C(Nc1cccc(-c2cc(-c3cccc(C(F)(F)F)c3)ncn2)c1)Nc1cc(Cl)nc(Cl)c1" ?
[A] 40 to 70%

[Q] Then "O=C(Nc1cccc(-c2cccc(-c3ccncc3)n2)c1)Nc1cc(Cl)nc(Cl)c1" ?
[A] > 70%

[Q] Then "FC(F)(F)c1cccc(-c2cccc(-c3ccc(NC(=S)Nc4cc(Cl)nc(Cl)c4)cc3)n2)c1" ?
[A] > 70%
